Assay: Steady state kinetics of purified NTR, variable substrate nitrofurazone
Assay type: biochemical
Conditions: fixed substrate NADH
Experimental Readout: Km (µM)
Respond with the bare value in µM.

Consider the molecule shown here: Wild type: wild-type E. coli nitroreductase (NTR) encoded by the NfsB gene, SEQ ID NO:1 (protein, listed as Escherichia coli) MDIISVALKRHSTKAFDASKKLTPEQAEQIKTLLQYSPSSTNSQPWHFIVASTEEGKARVAKSAAGNYVFNERKMLDASHVVVFCAKTAMDDVWLKLVVDQEDADGRFATPEAKAANDKGRKFFADMHRKDLHDDAEWMAKQVYLNVGNFLLGVAALGLDAVPIEGFDAAILDAEFGLKEKGYTSLVVVPVGHHSVEDFNATLPKSRLPQNITLTEV What is its recorded Km?
157

Look up Km for this molecule: Y68G: NTR mutant, tyrosine 68 to glycine (protein) MDIISVALKRHSTKAFDASKKLTPEQAEQIKTLLQYSPSSTNSQPWHFIVASTEEGKARVAKSAAGNGVFNERKMLDASHVVVFCAKTAMDDVWLKLVVDQEDADGRFATPEAKAANDKGRKFFADMHRKDLHDDAEWMAKQVYLNVGNFLLGVAALGLDAVPIEGFDAAILDAEFGLKEKGYTSLVVVPVGHHSVEDFNATLPKSRLPQNITLTEV
699

Fill in: Km of F124K: NTR mutant, phenylalanine 124 to lysine (protein) MDIISVALKRHSTKAFDASKKLTPEQAEQIKTLLQYSPSSTNSQPWHFIVASTEEGKARVAKSAAGNYVFNERKMLDASHVVVFCAKTAMDDVWLKLVVDQEDADGRFATPEAKAANDKGRKFKADMHRKDLHDDAEWMAKQVYLNVGNFLLGVAALGLDAVPIEGFDAAILDAEFGLKEKGYTSLVVVPVGHHSVEDFNATLPKSRLPQNITLTEV is ___
53

Name the reported Km value associated with the molecule T41L: NTR mutant, threonine 41 to leucine (protein) MDIISVALKRHSTKAFDASKKLTPEQAEQIKTLLQYSPSSLNSQPWHFIVASTEEGKARVAKSAAGNYVFNERKMLDASHVVVFCAKTAMDDVWLKLVVDQEDADGRFATPEAKAANDKGRKFFADMHRKDLHDDAEWMAKQVYLNVGNFLLGVAALGLDAVPIEGFDAAILDAEFGLKEKGYTSLVVVPVGHHSVEDFNATLPKSRLPQNITLTEV
79

I have this molecule here, F124H: NTR mutant, phenylalanine 124 to histidine (protein) MDIISVALKRHSTKAFDASKKLTPEQAEQIKTLLQYSPSSTNSQPWHFIVASTEEGKARVAKSAAGNYVFNERKMLDASHVVVFCAKTAMDDVWLKLVVDQEDADGRFATPEAKAANDKGRKFHADMHRKDLHDDAEWMAKQVYLNVGNFLLGVAALGLDAVPIEGFDAAILDAEFGLKEKGYTSLVVVPVGHHSVEDFNATLPKSRLPQNITLTEV , and I need its recorded Km.
104

Reference source: patent US20050013808A1
